- SYSTEM UNDER TEST: T1, HLA-A2/NY-ESO peptide complex presented on cells (human)
- T1 construct: whole, on cells; also called HLA/NY-ESO; T2 cells supplemented with the NY-ESO peptide
- ASSAY COMMENT: flow cytometry on peptide-pulsed T2 cells, scFv 100 nM
OBSERVED PROPERTY: standardized gMFI
// return a plain number; no unit text

>  <BINDER>
NYA-2023 (scFv) scFv: GEVQLVESGGGVVQPGRSLTPSCSASGFSIRSYDIHWVRQAPGKGLEWVATISYDGSQKYFADSVKGRFTIFRDESENMVYLQMSGLRVEDTAVYHCARGSSGHYEAFDIWGQGTMVTVSSGGGGSGGGGSGGGGSQSVLTQPPSVSAAPGQKVTISCSGSSSNIGNWYVSWYQQLPGTAPKLLIYDNNKRPSGIPDRFSGSKSGTSATLGITGLQTGDEADYYCGTWDSSLSAPWVFGGGTKVTVLGAAAGAGGDYKDDDDKGAAAHHHHHH

>  <standardized gMFI>
8.85

$$$$

Incoming: Complete the entry with standardized gMFI for NYA-2044 (scFv, also called NYA-2044 tag adduct) scFv: GEVQLVESGGGLVQPGGSLRLSCAASGFSIRSYDIHWVRLAPGKGLEWVATISYDGSQKYYADSVKGRFTISRDESKNTLYLQMNSLRAEDTAVYHCARGSSGHYEAFDIWGQGTLVTVSSGGGGSGGGGSGGGGSQSVLTQPPSVSAAPGQKVTISCSGSSSNIGNWYVSWYQQLPGTAPKLLIYDNNKRPSGIPDRFSGSKSGTSATLGITGLQTGDEADYYCGTWDSSLSAPWVFGGGTKVTVLGAAAGAGGDYKDDDDKGAAAHHHHHH
Outgoing: 12.9

Ref: patent US20230348616A1
